// provenance: patent US7786124B2

Consider the following compounds; for each one, report its Ki.
Molecular target: human CXCR3 (N-delta 4) (Homo sapiens, UniProt P49682)
Construct: CD8 leader; Flag tag; expressed in transfected cells; membrane preparation
Sequence (P49682 5-368 limits assumed): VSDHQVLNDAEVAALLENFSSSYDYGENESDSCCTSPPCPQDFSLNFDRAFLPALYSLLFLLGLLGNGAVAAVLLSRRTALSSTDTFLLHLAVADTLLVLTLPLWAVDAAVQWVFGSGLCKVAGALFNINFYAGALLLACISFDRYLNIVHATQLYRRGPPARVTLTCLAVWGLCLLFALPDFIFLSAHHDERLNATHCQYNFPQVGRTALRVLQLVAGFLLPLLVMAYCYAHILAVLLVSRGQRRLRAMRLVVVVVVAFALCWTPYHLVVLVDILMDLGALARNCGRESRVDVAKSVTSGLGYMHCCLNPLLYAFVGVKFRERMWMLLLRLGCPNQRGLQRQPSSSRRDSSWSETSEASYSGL
Assay: Human CXCR3 (N-delta 4) scintillation proximity binding assay ([125I] IP-10 displacement)
Details: Human CXCR3; Table 2; read-out: Ki
Quick reminder: number only, in nM, skip the unit.

// field: Ki; key: CC[C@H]1CN(c2ccc(-c3nnc(N)o3)nc2C)CCN1C1CCN(Cc2ccc(Cl)cc2)CC1 ; value = 0.3

// field: Ki; key: CC[C@H]1CN(c2ccc(-c3nnc(N)o3)nc2C)CCN1C1CCN(C(=O)c2ccc(Cl)cc2)CC1 ; value = 2.4

// field: Ki; key: CCNc1nnc(-c2ccc(N3C[C@H](CC)N(C4CCN(Cc5ccc(Cl)cc5)CC4)C[C@H]3C)c(C)n2)o1 ; value = 0.4

// field: Ki; key: CC[C@H]1CN(c2ccc(-c3nnc(N)o3)nc2C)CCN1C1CCN(Cc2ccc(OC(F)(F)F)cc2)CC1 ; value = 0.5
